Where do the numbers come from? From paper PMC5584973.

# TARGET OR SYSTEM: PHL (Photorhabdus asymbiotica, UniProt C7BLE4)
# Sequence (C7BLE4 1-369): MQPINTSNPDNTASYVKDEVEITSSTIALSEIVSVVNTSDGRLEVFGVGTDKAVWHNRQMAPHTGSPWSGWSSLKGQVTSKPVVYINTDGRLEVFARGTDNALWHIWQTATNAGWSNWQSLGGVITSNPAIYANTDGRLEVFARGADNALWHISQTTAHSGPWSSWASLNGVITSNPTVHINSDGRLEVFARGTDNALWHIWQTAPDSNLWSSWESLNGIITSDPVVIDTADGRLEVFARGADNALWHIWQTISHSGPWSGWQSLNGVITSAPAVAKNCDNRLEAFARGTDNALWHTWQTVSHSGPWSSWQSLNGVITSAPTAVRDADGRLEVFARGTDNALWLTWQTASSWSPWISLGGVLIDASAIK
# ASSAY TEXT: Isothermal titration calorimetry (ITC)
# Assay type: binding
# MEASUREMENT CONDITIONS: KD (n = 3), ITC at 25°C, stoichiometry fixed to 3
OUTCOME MEASURE: pKd
Interpret pKd as the negative base-10 log of the concentration measured in mol/L.

input: Given the entry "O=C[C@H](O)[C@@H](O)[C@@H](O)[C@H](O)CO" , report its measured pKd.
output: 3.05

###

# TARGET OR SYSTEM: PHL (Photorhabdus asymbiotica, UniProt C7BLE4)
# ASSAY TEXT: SPR inhibition of PHL binding to immobilized L-fucoside
# MEASUREMENT CONDITIONS: SPR, PHL 0.25 μM binding to immobilized L-fucoside, 25°C; read-out: IC50
The following molecules are listed with their measured IC50 values.
Reply with just the number (in µM).

MOLECULE	UNIT OF MEASUREMENT	IC50
CO[C@H]1O[C@@H](C)[C@@H](O)[C@@H](O)[C@@H]1O [Me-β-L-Fuc, methyl-β-L-fucopyranoside]	µM	770
CO[C@@H]1O[C@@H](C)[C@@H](O)[C@@H](O)[C@@H]1O [Me-α-L-Fuc, Methyl-α-L-fucopyranoside]	µM	40
CC(=O)N[C@H]1C(O)O[C@H](CO)[C@@H](O[C@@H]2O[C@@H](C)[C@@H](O)[C@@H](O)[C@@H]2O)[C@@H]1O (some centres unmarked)	µM	730
CC(=O)N[C@@H]1[C@@H](O)[C@H](O)[C@@H](CO)O[C@@H]1O	µM	70500
CC(=O)N[C@H]1C(O)O[C@H](CO)[C@@H](O)[C@@H]1O[C@@H]1O[C@@H](C)[C@@H](O)[C@@H](O)[C@@H]1O (some centres unmarked)	µM	690

input: Fill in the blank: the reported IC50 of CC(=O)N[C@H]1C(O)O[C@H](CO)[C@@H](O[C@@H]2O[C@H](CO)[C@H](O)[C@H](O)[C@H]2O[C@@H]2O[C@@H](C)[C@@H](O)[C@@H](O)[C@@H]2O)[C@@H]1O (some centres unmarked) [BGH trisaccharide] is ____.
output: 1090

input: Moving on to the next molecule: CC(=O)N[C@H]1[C@@H](O[C@H]2[C@@H](O)[C@@H](CO)O[C@@H](O)[C@@H]2O[C@@H]2O[C@@H](C)[C@@H](O)[C@@H](O)[C@@H]2O)O[C@H](CO)[C@H](O)[C@@H]1O [BGA trisaccharide]
output: 300

input: Thanks! And C[C@@H]1O[C@@H](O[C@H]2C(O)O[C@H](CO)[C@H](O)[C@@H]2O[C@H]2O[C@H](CO)[C@H](O)[C@H](O)[C@H]2O)[C@@H](O)[C@H](O)[C@@H]1O (some centres unmarked) [BGB trisaccharide] ?
output: 70

###

# TARGET OR SYSTEM: PHL (Photorhabdus asymbiotica)
# ASSAY TEXT: Isothermal titration calorimetry (ITC)
# Assay type: binding
# MEASUREMENT CONDITIONS: ITC, stoichiometry not fixed; read-out: equilibrium dissociation constant
# Experimental: ITC experiments were performed using an ITC200 calorimeter (Malvern, England). Experiments were performed at 25°C in buffer A (300 mM NaCl, 20 mM Tris/HCl, pH 7.5). Carbohydrate ligands were dissolved in the same buffer. Protein in the cell (50 μM) was titrated by consecutive addition (2 μl) of the ligand in the syringe (1.5–50 mM) while stirring at 1000 rpm. […] Integrated heat effects were analyzed by nonlinear regression using a single-site binding model in Origin 7 (Microcal). […]
Documented pKd across a set of compounds
// pKd is dimensionless: -log10 of concentration (M)

input: Return reported pKd; argument: CO[C@@H]1O[C@@H](C)[C@@H](O)[C@@H](O)[C@@H]1O [Me-α-L-Fuc, Methyl-α-L-fucopyranoside]
output: 3.57

input: Also, C[C@@H]1O[C@@H](O[C@H]2C(O)O[C@H](CO)[C@H](O)[C@@H]2O[C@H]2O[C@H](CO)[C@H](O)[C@H](O)[C@H]2O)[C@@H](O)[C@H](O)[C@@H]1O (some centres unmarked) [BGB trisaccharide] please.
output: 3.31

###

# TARGET OR SYSTEM: PHL (Photorhabdus asymbiotica)
# ASSAY TEXT: Isothermal titration calorimetry (ITC)
# Format: binding
# MEASUREMENT CONDITIONS: KD (n = 4), ITC at 25°C, stoichiometry fixed to 4
OUTCOME MEASURE: Kd
Please state the number and follow it with the unit.

input: API: value(readout= Kd, system= PHL (Photorhabdus asymbiotica), query= "O=C[C@H](O)[C@@H](O)[C@@H](O)[C@H](O)CO" )
output: 830 µM

###

# TARGET OR SYSTEM: PHL (Photorhabdus asymbiotica)
# ASSAY TEXT: Isothermal titration calorimetry (ITC)
# Type: binding
# MEASUREMENT CONDITIONS: ITC at 25°C, stoichiometry fixed to 3; read-out: KD (n = 3)
Measured Kd, listed per entry.
Write it as a number; the unit mM goes unstated.

Example cases with answers are listed next.
                                   compound  numeric_value
0  OC[C@H]1OC(O)[C@@H](O)[C@@H](O)[C@@H]1O (some centres unmarked)           44.6
1  OC[C@H]1OC(O)[C@H](O)[C@@H](O)[C@@H]1O (some centres unmarked)           3.55
2  CO[C@@H]1O[C@@H](C)[C@@H](O)[C@@H](O)[C@@H]1O [Me-α-L-Fuc, Methyl-α-L-fucopyranoside]           0.26
3  CO[C@H]1O[C@@H](C)[C@@H](O)[C@@H](O)[C@@H]1O [Me-β-L-Fuc, methyl-β-L-fucopyranoside]           3.55

Here's the next entry for you.
input: Give the measured Kd of "C[C@H](O)[C@@H](O)[C@@H](O)[C@H](O)C=O" .
output: 1.4

###

# TARGET OR SYSTEM: PHL (Photorhabdus asymbiotica, UniProt C7BLE4)
# ASSAY TEXT: SPR inhibition of PHL binding to immobilized L-fucoside
# MEASUREMENT CONDITIONS: SPR inhibition, from IC50
Kind request: treat 0.5 as inclusive, so Potency relative to L-Fuc at 0.5 or higher is Y, anything lower is N.

MOLECULE	CAT
CO[C@H]1O[C@@H](C)[C@@H](O)[C@@H](O)[C@@H]1O [Me-β-L-Fuc, methyl-β-L-fucopyranoside]	N

input: Evaluate CC(=O)N[C@@H]1[C@@H](O)[C@H](O)[C@@H](CO)O[C@@H]1O [D-GlcNAc, N-acetyl-D-glucosamine] : Potency relative to L-Fuc at minimum 0.5?
output: N

input: C[C@@H]1O[C@@H](O[C@H]2C(O)O[C@H](CO)[C@H](O)[C@@H]2O[C@H]2O[C@H](CO)[C@H](O)[C@H](O)[C@H]2O)[C@@H](O)[C@H](O)[C@@H]1O (stereo partly shown) [BGB trisaccharide] ?
output: Y

input: What do you have for CC(=O)N[C@H]1C(O)O[C@H](CO)[C@@H](O[C@@H]2O[C@H](CO)[C@H](O)[C@H](O)[C@H]2O[C@@H]2O[C@@H](C)[C@@H](O)[C@@H](O)[C@@H]2O)[C@@H]1O (stereo partly shown) [BGH trisaccharide] ?
output: N

input: Moving on to the next molecule: OC[C@H]1OC(O)[C@H](O)[C@@H](O)[C@@H]1O (stereo partly drawn) [D-Glc]
output: N

###

# TARGET OR SYSTEM: PHL (Photorhabdus asymbiotica)
# ASSAY TEXT: SPR inhibition of PHL binding to immobilized L-fucoside
# MEASUREMENT CONDITIONS: SPR inhibition, from IC50
Examples of molecules with documented Potency relative to L-Fuc follow.

// worked examples, Potency relative to L-Fuc included
MOLECULE	TARGET OR SYSTEM	Potency relative to L-Fuc
CC(=O)N[C@H]1C(O)O[C@H](CO)[C@@H](O)[C@@H]1O[C@@H]1O[C@@H](C)[C@@H](O)[C@@H](O)[C@@H]1O (some centres unmarked) [Fucα1-3GlcNAc]	PHL (Photorhabdus asymbiotica)	0.53
O=C[C@H](O)[C@@H](O)[C@@H](O)[C@H](O)CO [D-Gal, D-galactose]	PHL (Photorhabdus asymbiotica)	< 0.01
CC(=O)N[C@H]1[C@@H](O[C@H]2[C@@H](O)[C@@H](CO)O[C@@H](O)[C@@H]2O[C@@H]2O[C@@H](C)[C@@H](O)[C@@H](O)[C@@H]2O)O[C@H](CO)[C@H](O)[C@@H]1O [BGA trisaccharide]	PHL (Photorhabdus asymbiotica)	1.21
CC(=O)N[C@H]1C(O)O[C@H](CO)[C@@H](O[C@@H]2O[C@@H](C)[C@@H](O)[C@@H](O)[C@@H]2O)[C@@H]1O (some centres unmarked) [Fucα1-4GlcNAc]	PHL (Photorhabdus asymbiotica)	0.49

Moving on to the next molecule.
input: Sample OC[C@H]1OC(O)[C@@H](O)[C@@H](O)[C@@H]1O (stereo partly drawn) [D-Man, D-mannose] — what was its Potency relative to L-Fuc?
output: < 0.01
